From: patent US8431591B2

biological target: dopamine D1 receptor (Rattus norvegicus, UniProt P18901); test: Radioligand competition assay, affinity at rat D1 receptors ([3H]SCH23390); conditions: radioligand [3H]SCH23390
Sequence (P18901 whole entry): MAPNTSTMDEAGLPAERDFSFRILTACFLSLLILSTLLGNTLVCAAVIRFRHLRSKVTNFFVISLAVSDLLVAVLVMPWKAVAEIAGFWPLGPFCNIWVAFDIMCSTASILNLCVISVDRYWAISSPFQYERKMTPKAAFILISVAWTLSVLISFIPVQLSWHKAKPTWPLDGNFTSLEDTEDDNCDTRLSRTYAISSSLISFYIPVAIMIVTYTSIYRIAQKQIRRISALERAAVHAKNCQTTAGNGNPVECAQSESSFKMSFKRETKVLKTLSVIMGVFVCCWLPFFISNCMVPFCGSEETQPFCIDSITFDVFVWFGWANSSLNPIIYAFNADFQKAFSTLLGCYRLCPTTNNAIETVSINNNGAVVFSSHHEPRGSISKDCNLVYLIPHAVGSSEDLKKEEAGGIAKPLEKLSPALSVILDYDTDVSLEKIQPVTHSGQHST
Record form. Attribute: Ki. Fill in for each entry.

Ki reported for this molecule COc1cc2c3c(c1)-c1c(O)cccc1CC3N(C)CC2 (centres unmarked) [Compound 3, 2-Methoxy-11-hydroxyaporphine] : 0.046 µM

Noted for COc1cc2c3c(c1)-c1c(ccc(O)c1O)C[C@H]3N(C)CC2 : its Ki reads 6.45 µM

---

molecular target: dopamine D2 receptor (Rattus norvegicus, UniProt P61169); test: Radioligand competition assay, affinity at rat D2 receptors ([3H]nemonapride); type: binding
Sequence (P61169 whole entry): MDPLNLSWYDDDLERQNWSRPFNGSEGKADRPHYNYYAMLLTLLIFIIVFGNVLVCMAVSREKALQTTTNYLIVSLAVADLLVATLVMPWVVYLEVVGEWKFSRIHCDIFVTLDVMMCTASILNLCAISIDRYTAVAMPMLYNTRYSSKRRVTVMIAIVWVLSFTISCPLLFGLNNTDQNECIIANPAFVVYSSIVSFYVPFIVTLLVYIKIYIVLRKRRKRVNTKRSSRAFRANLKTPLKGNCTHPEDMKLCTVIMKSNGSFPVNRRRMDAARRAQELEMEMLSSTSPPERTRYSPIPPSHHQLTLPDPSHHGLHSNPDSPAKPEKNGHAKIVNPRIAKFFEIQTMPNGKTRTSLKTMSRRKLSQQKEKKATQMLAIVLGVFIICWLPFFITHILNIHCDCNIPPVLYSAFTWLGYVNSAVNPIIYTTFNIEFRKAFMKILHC
Readout Label: pKi
Scale for pKi: -log10 of concentration given in mol/L; no unit attached.

In plain terms, COc1cc2c3c(c1)-c1c(ccc(O)c1O)C[C@H]3N(C)CC2 [Compound 8] has a documented pKi of 8.89
